The reported measurements were obtained from patent US10407467B2.

System: Escherichia coli
measurement-protocol: MIC, sole activity (no second agent)
Format: cell-based
test-settings: in the absence of Rifampicin; strain ATCC25922
Bridge positions count the residues as written; N and C are the ends. Square brackets hold non-standard residues; d marks the D form. Peptide text beside a SMILES is read from it. * marks the point of attachment. ξ: configuration not given here. Thr(3ξ) = CC(O)[C@H](N)C(=O)O; Propanoyl(3-OH) = O=C(CCO)*; Dab = NCC[C@H](N)C(=O)O
measured-property: MIC E. coli ATCC25922

**Query** Any idea what its MIC E. coli ATCC25922 is? The compound is CC(C)C[C@@H]1NC(=O)[C@@H](Cc2ccccc2)NC(=O)[C@H](CCN)NC(=O)[C@@H](NC(=O)[C@H](CCN)NC(=O)[C@@H](NC(=O)CCO)C(C)O)CCNC(=O)[C@H](C(C)O)NC(=O)[C@H](CCN)NC(=O)[C@H](CCN)NC1=O (stereo partly shown) [Example 26] ({Propanoyl(3-OH)}-[Thr(3ξ)][Dab][Dab][Dab][dF]L[Dab][Dab][Thr(3ξ)]; lactam 3-C)
**Result** >32 micrograms/mL

---

MIC E. coli ATCC25922 reference
Tested on: Escherichia coli
measurement-protocol: MIC, sole activity (no second agent)
Type: cell-based
test-settings: in the absence of Rifampicin; strain ATCC25922
Where a name gives a salt, the structure may show the parent alone. Bridge positions count the residues as written; N and C are the ends. Square brackets hold non-standard residues; d marks the D form. Peptide text beside a SMILES is read from it. * marks the point of attachment. ξ: configuration not given here. X6 = N[C@@H](CC(=O)*)c1ccc2ccccc2c1; Thr(3ξ) = CC(O)[C@H](N)C(=O)O; Dab = NCC[C@H](N)C(=O)O; X15 = O=C(C1CCNC1)*
// units = micrograms/mL; emit number, no label

**Query** Request body: readout MIC E. coli ATCC25922, system Escherichia coli, query CC(C)C[C@@H]1NC(=O)[C@@H](Cc2ccccc2)NC(=O)[C@H](CCN)NC(=O)[C@@H](NC(=O)[C@H](CCN)NC(=O)[C@@H](NC(=O)C2CCNC2)C(C)O)CCNC(=O)[C@H](C(C)O)NC(=O)[C@H](CCN)NC(=O)[C@H](CCN)NC1=O (stereo partly drawn) [Example 9] (X15-[Thr(3ξ)][Dab][Dab][Dab][dF]L[Dab][Dab][Thr(3ξ)]; lactam 3-C) . Return the value.
**Result** 0.5

The record that follows has no MIC E. coli ATCC25922 shown yet.
**Query** // lookup MIC E. coli ATCC25922 | system=Escherichia coli | key= CC(C)C[C@@H]1NC(=O)[C@@H](Cc2ccccc2)NC(=O)[C@H](CCN)NC(=O)[C@@H](NC(=O)[C@H](CCN)NC(=O)[C@@H](NC(=O)C[C@H](N)c2ccc3ccccc3c2)C(C)O)CCNC(=O)[C@H](C(C)O)NC(=O)[C@H](CCN)NC(=O)[C@H](CCN)NC1=O (stereo partly drawn) [Example 38, trifluoroacetate salt] (X6-[Thr(3ξ)][Dab][Dab][Dab][dF]L[Dab][Dab][Thr(3ξ)]; lactam 3-C)
**Result** 4

---

Tested on: HK-2 cell line
measurement-protocol: In vitro renal cell toxicity assay (resazurin reduction)
Type: cell-based, human
Numbered stars: 1 amine (or outer) side, 2 acyl side, 3 side chain; on linkers, the order of the positions; unused ones are H or OH. Bridge positions count the residues as written; N and C are the ends. Square brackets hold non-standard residues; d marks the D form. Peptide text beside a SMILES is read from it. * marks the point of attachment. ξ: configuration not given here. NHCH2(1,3-C6H4)CH2CO = O=C(Cc1cccc(CN[*:1])c1)[*:2]; X22 = O=C(C[C@@H]1Cc2ccccc2CN1)*; Thr(3ξ) = CC(O)[C@H](N)C(=O)O; Dab = NCC[C@H](N)C(=O)O; X3 = O=C([C@H]1CCCNC1)*; Dap = NC[C@H](N)C(=O)O
Measured HK-2 IC50 rel to PMB accompanies every entry in the list below.
Could you keep your reply to the number by itself?

Worked examples, 2 compounds total:
**Query** Entry under review: CC(C)C[C@@H]1NC(=O)[C@@H](Cc2ccccc2)NC(=O)[C@H](CCN)NC(=O)[C@@H](NC(=O)[C@H](CN)NC(=O)[C@@H](NC(=O)[C@H](CCN)NC(=O)[C@H]2CCCNC2)C(C)O)CCNC(=O)[C@H](C(C)O)NC(=O)[C@H](CCN)NC(=O)[C@H](CCN)NC1=O (stereo partly shown) [Example A13] (X3-[Dab][Thr(3ξ)][Dap][Dab][Dab][dF]L[Dab][Dab][Thr(3ξ)]; lactam 4-C) . Reported HK-2 IC50 rel to PMB?
**Result** 10

**Query** Look up HK-2 IC50 rel to PMB for this compound: CC(C)C[C@@H]1NC(=O)[C@@H](Cc2ccccc2)NC(=O)[C@H](CCN)NC(=O)[C@@H](NC(=O)[C@H](CCN)NC(=O)[C@@H](NC(=O)Cc2cccc(CN)c2)C(C)O)CCNC(=O)[C@H](C(C)O)NC(=O)[C@H](CCN)NC(=O)[C@H](CCN)NC1=O (stereo partly shown) [Example A1] ({NHCH2(1,3-C6H4)CH2CO}-[Thr(3ξ)][Dab][Dab][Dab][dF]L[Dab][Dab][Thr(3ξ)]; lactam 3-C)
**Result** 8

Further cases:
**Query** State the recorded HK-2 IC50 rel to PMB for this entry: CC(C)C[C@@H]1NC(=O)[C@@H](Cc2ccccc2)NC(=O)[C@H](CCN)NC(=O)[C@@H](NC(=O)[C@H](CCN)NC(=O)[C@@H](NC(=O)C[C@@H]2Cc3ccccc3CN2)C(C)O)CCNC(=O)[C@H](C(C)O)NC(=O)[C@H](CCN)NC(=O)[C@H](CCN)NC1=O (stereo partly shown) [Example A14] (X22-[Thr(3ξ)][Dab][Dab][Dab][dF]L[Dab][Dab][Thr(3ξ)]; lactam 3-C)
**Result** 5.3
